# SYSTEM NAME: hPin1 (Homo sapiens, UniProt Q13526)
# Construct: The protease free assay ensures reliable measurement of IC50 values for the full-length hPin1
# Sequence (Q13526 whole entry): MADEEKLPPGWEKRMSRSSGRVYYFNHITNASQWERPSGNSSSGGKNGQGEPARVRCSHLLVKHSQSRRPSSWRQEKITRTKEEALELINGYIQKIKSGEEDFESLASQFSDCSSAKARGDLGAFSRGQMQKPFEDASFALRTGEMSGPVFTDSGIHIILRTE
# PROTOCOL DESCRIPTION: Protease free PPIase assay, hPin1
# Type: biochemical
# ASSAY SETUP: blockade of PPIase activity of full-length hPin1, protease free assay, 10° C.; read-out: IC50
Square brackets hold non-standard residues; d marks the D form. Peptide text beside a SMILES is read from it. * marks the point of attachment. Biotin = O=C1N[C@H]2[C@H](CS[C@H]2CCCCC(=O)*)N1; Bip = N[C@@H](Cc1ccc(-c2ccccc2)cc1)C(=O)O; pT = C[C@@H](OP(=O)(O)O)[C@H](N)C(=O)O; 2Nal = N[C@@H](Cc1ccc2ccccc2c1)C(=O)O; Bta = N[C@@H](Cc1csc2ccccc12)C(=O)O; 2Thi = N[C@@H](Cc1cccs1)C(=O)O; Pip = O=C(O)[C@@H]1CCCCN1; NMeA = CN[C@@H](C)C(=O)O
PARAMETER: IC50 (µM)
Give the value, in units of µM, as a plain number.

Solved cases below.
# MOLECULE, UNIT OF MEASURE, RECORDED VALUE
rows = [
    ("CC(=O)N[C@@H](CCCCNC(=O)CCCC[C@@H]1SC[C@@H]2NC(=O)N[C@@H]21)C(=O)N[C@@H](C)C(=O)N[C@@H](C)C(=O)N[C@@H](Cc1csc2ccccc12)C(=O)N[C@H](C(=O)N1CCC[C@H]1C(=O)N[C@@H](Cc1ccc2ccccc2c1)C(=O)N[C@@H](CCC(N)=O)C(N)=O)[C@@H](C)OP(=O)(O)O [Peptide 4] (Ac-K(Biotin)AA[Bta][pT]P[2Nal]Q-NH2)", "µM", 20),
    ("CC(=O)N[C@@H](CCCCNC(=O)CCCC[C@@H]1SC[C@@H]2NC(=O)N[C@@H]21)C(=O)N[C@@H](C)C(=O)N[C@@H](C)C(=O)N[C@@H](Cc1ccccc1)C(=O)N[C@H](C(=O)N(C)[C@@H](C)C(=O)N[C@@H](Cc1csc2ccccc12)C(=O)N[C@@H](CCC(N)=O)C(N)=O)[C@@H](C)OP(=O)(O)O [Peptide 12] (Ac-K(Biotin)AAF[pT][NMeA][Bta]Q-NH2)", "µM", 20),
    ("CC(=O)N[C@@H](CCCCNC(=O)CCCC[C@@H]1SC[C@@H]2NC(=O)N[C@@H]21)C(=O)N[C@@H](C)C(=O)N[C@@H](C)C(=O)N[C@@H](Cc1cccs1)C(=O)N[C@H](C(=O)N(C)[C@@H](C)C(=O)N[C@@H](Cc1ccc2ccccc2c1)C(=O)N[C@@H](CCC(N)=O)C(N)=O)[C@@H](C)OP(=O)(O)O [Peptide 10] (Ac-K(Biotin)AA[2Thi][pT][NMeA][2Nal]Q-NH2)", "µM", 15),
    ("CC(=O)N[C@@H](CCCCNC(=O)CCCC[C@@H]1SC[C@@H]2NC(=O)N[C@@H]21)C(=O)N[C@@H](C)C(=O)N[C@@H](C)C(=O)N[C@@H](Cc1csc2ccccc12)C(=O)N[C@H](C(=O)N1CCCC[C@H]1C(=O)N[C@@H](Cc1ccc2ccccc2c1)C(=O)N[C@@H](CCC(N)=O)C(N)=O)[C@@H](C)OP(=O)(O)O [Peptide 15] (Ac-K(Biotin)AA[Bta][pT][Pip][2Nal]Q-NH2)", "µM", 0.21),
]

The reported value for CC(=O)N[C@@H](CCCCNC(=O)CCCC[C@@H]1SC[C@@H]2NC(=O)N[C@@H]21)C(=O)N[C@@H](C)C(=O)N[C@@H](C)C(=O)N[C@@H](Cc1ccc(-c2ccccc2)cc1)C(=O)N[C@H](C(=O)N1CCC[C@H]1C(=O)N[C@@H](Cc1csc2ccccc12)C(=O)N[C@@H](CCC(N)=O)C(N)=O)[C@@H](C)OP(=O)(O)O [Peptide 5] (Ac-K(Biotin)AA[Bip][pT]P[Bta]Q-NH2) in terms of IC50 is 15
